- assay.system: UniProtKB O35678
- Sequence (O35678 whole entry): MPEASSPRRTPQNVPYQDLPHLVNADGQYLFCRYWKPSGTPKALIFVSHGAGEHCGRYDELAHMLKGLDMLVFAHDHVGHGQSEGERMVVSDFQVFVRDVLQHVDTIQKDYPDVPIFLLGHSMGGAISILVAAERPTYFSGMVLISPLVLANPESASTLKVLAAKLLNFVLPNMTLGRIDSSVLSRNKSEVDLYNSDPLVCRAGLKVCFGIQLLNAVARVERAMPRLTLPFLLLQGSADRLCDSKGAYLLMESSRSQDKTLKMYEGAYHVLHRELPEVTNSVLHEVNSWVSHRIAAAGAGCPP
- assay.procedure: In vitro competitive activity-based protein profiling, MAGL (mouse)
- Assay type: biochemical
- stated.conditions: 1 μM, read-out: MAGL % inh. 1 μM (mouse)
observed.property: inhibition at 1 µM

Take a look at these entries with their results.
CS(=O)(=O)Nc1cnn(C(=O)N2CCN(Cc3ccc(-c4ccccc4)cc3Cl)CC2)c1
≥ 75%
CS(=O)(=O)Nc1cnn(C(=O)N2CCN(Cc3ccc(-c4nccs4)cc3C(F)(F)F)CC2)c1
50 to 75%

**Q:** Specify inhibition at 1 µM for CC(=O)N(C)c1cnn(C(=O)N2CCN(Cc3ccc(N4CCCC4)cc3)CC2)c1 and stop.
**A:** ≥ 75%

**Q:** Dear colleague, please send me the reported inhibition at 1 µM for CC(=O)N(C)c1cnn(C(=O)N2CCN(Cc3cccc(Oc4ccccc4)c3)CC2)c1 when you can.
**A:** ≥ 75%

**Q:** Name the recorded inhibition at 1 µM of the item CC(=O)N(C)c1cnn(C(=O)N2C[C@H]3C[C@H](N(C)Cc4ccc(N5CCCC5)cc4C(F)(F)F)C[C@H]3C2)c1 in your answer.
**A:** ≥ 75%

* * *

- assay.system: FAAH (Mus musculus (Mouse))
- Sequence (O08914 whole entry): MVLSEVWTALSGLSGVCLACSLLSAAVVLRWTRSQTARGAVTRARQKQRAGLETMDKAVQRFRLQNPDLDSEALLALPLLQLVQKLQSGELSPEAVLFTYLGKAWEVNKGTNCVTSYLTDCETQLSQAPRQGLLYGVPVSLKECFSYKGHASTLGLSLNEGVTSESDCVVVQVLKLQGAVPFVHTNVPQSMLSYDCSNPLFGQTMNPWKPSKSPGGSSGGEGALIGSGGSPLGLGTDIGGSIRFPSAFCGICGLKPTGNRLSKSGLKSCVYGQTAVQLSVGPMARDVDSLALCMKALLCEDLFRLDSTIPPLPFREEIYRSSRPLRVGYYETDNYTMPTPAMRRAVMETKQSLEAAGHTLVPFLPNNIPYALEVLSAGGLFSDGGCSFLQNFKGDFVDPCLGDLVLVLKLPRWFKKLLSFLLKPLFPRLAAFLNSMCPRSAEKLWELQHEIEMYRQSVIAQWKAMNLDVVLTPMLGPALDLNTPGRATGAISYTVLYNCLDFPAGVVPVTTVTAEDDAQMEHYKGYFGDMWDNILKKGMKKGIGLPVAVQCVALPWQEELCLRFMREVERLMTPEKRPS
- assay.procedure: In vitro competitive activity-based protein profiling, FAAH (mouse)
- Type: biochemical
- stated.conditions: 1 μM, read-out: FAAH % inh. 1 μM (mouse)
Some molecules, each annotated with its measured inhibition at 1 µM.

In the examples that follow, each entry is paired with its recorded inhibition at 1 µM.
CC(=O)N(C)c1cnn(C(=O)N2CC3CN(Cc4ccc(Oc5ccnnc5)cc4C(F)(F)F)CC3C2)c1 (stereo not shown)
≥ 75%
Cc1noc(-c2ccc(CN3CCN(C(=O)n4cc(NS(C)(=O)=O)cn4)CC3)c(C(F)(F)F)c2)n1
≥ 75%
CC(=O)N(C)c1cnn(C(=O)N2CC3CN(Cc4ccc(OC5CCN(C6CC6)CC5)cc4Cl)CC3C2)c1 (stereo not shown)
≥ 75%

Here is another molecule to look at.
**Q:** Using the record for CC(=O)N(C)c1cnn(C(=O)N2CCC3(CC2)CN(Cc2ccc(F)cc2)C3)c1 , state its measured inhibition at 1 µM.
**A:** 25 to 50%

* * *

- assay.system: UniProt:O08914
- assay.procedure: In vitro competitive activity-based protein profiling, FAAH (mouse)
- Type: biochemical
- stated.conditions: 1 μM, read-out: FAAH % inh. 1 μM (mouse)
observed.property: inhibition at 1 µM

**Q:** // fetch inhibition at 1 µM for CC(=O)N(C)c1cnn(C(=O)N2CCC3(CC2)CN(Cc2ccc(N4CCOCC4)cc2Cl)C3)c1 ; system: UniProt:O08914
**A:** ≥ 75%

**Q:** GET inhibition at 1 µM | system: UniProt:O08914 | item: CC(=O)N(C)c1cnn(C(=O)N2CCN(Cc3ccc(C(F)(F)F)cc3N3CCCC3)CC2)c1
**A:** 25 to 50%

**Q:** Look up UniProt:O08914 data: inhibition at 1 µM of CC(=O)N(C)c1cnn(C(=O)N2C[C@H]3C[C@@H](N(C)Cc4cc(C(F)(F)F)ccc4C(F)(F)F)C[C@H]3C2)c1 , then report it.
**A:** ≥ 75%

**Q:** Please report the measured inhibition at 1 µM for CC(=O)N(C)c1cnn(C(=O)N2CCN(Cc3ccccc3C)CC2)c1 tested on UniProt:O08914.
**A:** ≥ 75%

**Q:** Param request: inhibition at 1 µM | system UniProt:O08914 | item CC(=O)N(C)c1cnn(C(=O)N2C[C@H]3C[C@H](N(Cc4ccccc4Cl)C(C)=O)C[C@H]3C2)c1
**A:** 0 to 25%

**Q:** Using UniProt:O08914 as the test system, report measured inhibition at 1 µM of CC(=O)N(C)c1cnn(C(=O)N2CCN(Cc3ccccc3C(F)(F)F)CC2)c1 .
**A:** ≥ 75%

**Q:** Report value: inhibition at 1 µM, system: UniProt:O08914, molecule: CN(Cc1ccc(N2CCCC2)cc1C(F)(F)F)[C@H]1C[C@@H]2CN(C(=O)n3cc(NS(C)(=O)=O)cn3)C[C@@H]2C1
**A:** ≥ 75%
